- Tested on: PC-3 prostate
- protocol: NCI tumour cell line growth inhibition, 48 h
endpoint: TGI (µM)

>  <molecule>
O=C(c1ccc(O)cc1)C1[C@H](c2ccccc2Br)[C@@H](c2ccccc2)NC12C(=O)Nc1ccc(Cl)cc12 (some centres undefined)

>  <target or system>
PC-3 prostate

>  <measured number>
11.3

$$$$
>  <molecule>
COc1ccc(-c2nc(S(=O)(=O)c3ccc(C)cc3)c(S(=O)(=O)CC(=O)N(C)Cc3ccccc3)o2)cc1

>  <target or system>
PC-3 prostate

>  <measured number>
44.9

$$$$
>  <molecule>
CC1=C(COCCOC(=O)c2ccc(S(=O)(=O)F)cc2)C2=C(C)C3(CC3)[C@@](C)(O)C(=O)C2=C1

>  <target or system>
PC-3 prostate

>  <measured number>
51.3

$$$$
>  <molecule>
N#C[Se]CC(=O)Nc1cccc(C(F)(F)F)c1

>  <target or system>
PC-3 prostate

>  <measured number>
31

$$$$

###

- Test system: MDA-MB-468 breast
- protocol: NCI tumour cell line growth inhibition, 48 h

>  <compound>
CCCCCCCC(=O)SCC/C=C/[C@@H]1CC(=O)NCc2cccc(n2)CN(Cc2ccc3ccccc3c2)CC(=O)N[C@@H](C(C)C)C(=O)O1

>  <GI50>
33300 nM

$$$$
>  <compound>
C=C1C(=O)O[C@H]2[C@H]1CC/C(COC(=O)/C=C\C(=O)NCc1ccc(Cn3c(=O)sn(CCCI)c3=O)cc1)=C\CC[C@@]1(C)O[C@@H]21

>  <GI50>
519 nM

$$$$
>  <compound>
N#Cc1c(-c2ccc(Cl)cc2)nc(SCc2ccccc2)nc1N1CCNCC1

>  <GI50>
1710 nM

$$$$
>  <compound>
CCOC(=O)/C=C1/SC(N2CCCCC2)C(=O)N1CC (stereo unspecified)

>  <GI50>
> 100000 nM

$$$$
>  <compound>
CCOC(=O)c1nnn(-c2no[n+]([O-])c2-c2ccc(OC)cc2)c1COc1cccc2cccnc12

>  <GI50>
2610 nM

$$$$
>  <compound>
Oc1cccc(-c2nc(-c3n[nH]c(=S)n3-c3ccccc3)cc3c2[nH]c2ccccc23)c1

>  <GI50>
2540 nM

$$$$

###

Parameter TGI: see the listing below.
- Test system: SNB-75 CNS
- protocol: NCI tumour cell line growth inhibition, 48 h
endpoint: TGI

>  <compound>
O=C(Nc1ccc(I)cc1F)c1cc(-c2ccc(F)cc2F)ccc1O

>  <endpoint>
TGI

>  <result>
3.92 µM

$$$$
>  <compound>
O=C(c1ccc(O)cc1)C1[C@H](c2ccccc2Br)[C@@H](c2ccccc2)NC12C(=O)Nc1ccc(Cl)cc12 (some centres undefined)

>  <endpoint>
TGI

>  <result>
8.12 µM

$$$$
>  <compound>
COc1ccc(-c2nc(S(=O)(=O)c3ccc(C)cc3)c(S(=O)(=O)CC(=O)N(C)Cc3ccccc3)o2)cc1

>  <endpoint>
TGI

>  <result>
18.7 µM

$$$$
>  <compound>
N#C[Se]CC(=O)Nc1cccc(C(F)(F)F)c1

>  <endpoint>
TGI

>  <result>
5.26 µM

$$$$

###

- Tested on: MDA-MB-468 breast
- protocol: NCI tumour cell line growth inhibition, 48 h; in the data active = GI50 below about 0.43 µM; inactive = the rest
Outcomes: TRUE = active, FALSE = inactive

>  <molecule>
O=Cc1cn(Cc2ccc(Cl)cc2)c2ccccc12

>  <target or system>
MDA-MB-468 breast

>  <group label>
TRUE

$$$$
>  <molecule>
CC1(C)CC[C@]2(C(N)=O)CC[C@]3(C)C(=CC[C@@H]4[C@@]5(C)C/C(=C/c6cccnc6)C(=O)C(C)(C)[C@@H]5CC[C@]43C)[C@@H]2C1

>  <target or system>
MDA-MB-468 breast

>  <group label>
FALSE

$$$$
>  <molecule>
N#CC1=C(N)Oc2c(ccc3ccccc23)C1c1cccs1 (stereo not given)

>  <target or system>
MDA-MB-468 breast

>  <group label>
TRUE

$$$$
>  <molecule>
COc1ccc(-c2nc(S(=O)(=O)c3ccc(C)cc3)c(S(=O)(=O)CC(=O)N(C)Cc3ccccc3)o2)cc1

>  <target or system>
MDA-MB-468 breast

>  <group label>
FALSE

$$$$
>  <molecule>
O=C(Nc1ccc(I)cc1F)c1cc(-c2ccc(F)cc2F)ccc1O

>  <target or system>
MDA-MB-468 breast

>  <group label>
FALSE

$$$$
